Overview of recorded pEC50 for various compounds
targetSystem: NLRP3 inflammasomes (Homo sapiens, UniProt Q96P20)
Construct: endogenous in cells
Sequence (Q96P20 whole entry): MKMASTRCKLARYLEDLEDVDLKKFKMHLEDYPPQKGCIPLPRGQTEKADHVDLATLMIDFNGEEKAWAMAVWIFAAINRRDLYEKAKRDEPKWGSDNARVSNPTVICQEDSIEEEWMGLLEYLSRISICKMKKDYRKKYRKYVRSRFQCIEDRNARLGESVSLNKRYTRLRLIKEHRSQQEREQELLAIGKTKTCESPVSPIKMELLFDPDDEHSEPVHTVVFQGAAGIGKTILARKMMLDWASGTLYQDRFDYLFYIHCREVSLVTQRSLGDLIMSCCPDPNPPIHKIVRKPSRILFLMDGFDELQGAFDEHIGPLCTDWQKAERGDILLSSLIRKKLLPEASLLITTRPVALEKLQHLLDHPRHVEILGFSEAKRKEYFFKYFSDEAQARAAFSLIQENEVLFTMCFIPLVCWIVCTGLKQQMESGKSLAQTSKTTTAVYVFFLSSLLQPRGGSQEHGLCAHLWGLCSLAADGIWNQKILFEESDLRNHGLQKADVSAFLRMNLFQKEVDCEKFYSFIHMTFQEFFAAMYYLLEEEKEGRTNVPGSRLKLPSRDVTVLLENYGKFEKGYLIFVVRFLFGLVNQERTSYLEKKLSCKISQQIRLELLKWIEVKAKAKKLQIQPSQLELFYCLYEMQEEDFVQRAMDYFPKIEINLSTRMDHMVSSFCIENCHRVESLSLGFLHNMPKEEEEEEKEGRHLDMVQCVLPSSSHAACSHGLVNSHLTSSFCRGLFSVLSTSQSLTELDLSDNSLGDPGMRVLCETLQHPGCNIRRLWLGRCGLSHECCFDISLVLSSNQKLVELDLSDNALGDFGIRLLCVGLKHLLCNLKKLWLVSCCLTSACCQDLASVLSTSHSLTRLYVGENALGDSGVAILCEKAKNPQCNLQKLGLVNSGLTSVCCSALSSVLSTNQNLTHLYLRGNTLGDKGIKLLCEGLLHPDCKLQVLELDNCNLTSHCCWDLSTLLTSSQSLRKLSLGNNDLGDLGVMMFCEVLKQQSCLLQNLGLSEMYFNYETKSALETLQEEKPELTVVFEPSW
methodSummary: THP-1 pyroptosis test (cell pyroptosis test)
settings: THP-1 cells differentiated with PMA, LPS stimulation, 10 μM nigericin, drug 0.001-10 μM, MTT absorbance 562 nm
pEC50: −log10 of the molar value.

Guide cases for pEC50, answers given:
Cc1ccc(-c2nnc(N[C@@H]3CCCN(C)C3)c3ccccc23)c(O)c1 [Compound 40]	> 7.70
CN1CCC[C@@H](Nc2nnc(-c3ccc(C(F)(F)F)cc3O)c3ccc(P(C)(C)=O)cc23)C1 [Compound 43]	6.00 to 6.30
CN1CCC[C@@H](Nc2nnc(-c3ccc(C(F)(F)F)cc3O)c3cscc23)C1 [Compound 54]	> 7.70
CN1CCC(Nc2nnc(-c3ccc(F)cc3O)c3c2cnn3C)CC1 [Compound 70]	< 6.00
CN1CCC[C@@H](Nc2nnc(-c3ccc(C(F)(F)F)cc3O)c3cc(F)ccc23)C1 [Compound 16]	> 7.70

Specify pEC50 for CN(C)[C@H]1CC[C@@H](Nc2nnc(-c3ccc(C(F)(F)F)cc3O)c3ccccc23)CC1 [Compound 19] and stop.
6.00 to 6.30

Specify pEC50 for Cc1ccc2c(-c3ccc(C(F)(F)F)cc3O)nnc(N[C@@H]3CCCN(C)C3)c2c1 [Compound 4] and stop.
> 7.70

Specify pEC50 for Cc1cnc2c(N[C@@H]3CCCN(C)C3)nnc(-c3ccc(OC(F)(F)F)cc3O)c2c1 [Compound 61] and stop.
> 7.70

Specify pEC50 for CCCCNc1nnc(-c2ccc(C(F)(F)F)cc2O)c2ccccc12 [Compound 11] and stop.
< 6.00

Specify pEC50 for Cn1cnc2c(-c3ccc(C(F)(F)F)cc3O)nnc(NCCN3CCOCC3)c21 [Compound 77] and stop.
< 6.00

Specify pEC50 for CN1CCC[C@@H](Nc2nnc(-c3ccc(C(F)(F)F)cc3O)c3ncn(C)c23)C1 [Compound 36] and stop.
6.00 to 6.30
